This listing pairs compounds with measured inhibition at 10 µM.
- test_system: BTK (Homo sapiens)
- assay_remarks: biochemical
- condition_info: read-out: BTK inhibition (%), 0.75 uM BTK, […] probe 3l, 15 min preincubation
The reply should contain only the number, in %.

# example entries with known answers
>>> print(df.to_string())
                                   compound  units_label  recorded_measurement
0  O=S(=O)(CC1CS1)c1ccc(Oc2ccccc2)cc1 (centres unmarked)            %                  20.8
1  C=CC(=O)Nc1ccc2ncnc(Nc3ccc(OCc4cccc(F)c4)c(Cl)c3)c2c1            %                   110
2  CN1C(CCl)Nc2cc(Cl)c(S(N)(=O)=O)cc2S1(=O)=O (centres unmarked)            %                  -2.3

query: Check the records and state inhibition at 10 µM for `CCc1c2c(nc3ccc(OC(=O)N4CCC(N5CCCCC5)CC4)cc13)-c1cc3c(c(=O)n1C2)COC(=O)[C@]3(O)CC`
result: 6.9

query: Check the records and state inhibition at 10 µM for `CCCN1CCCC[C@H]1C(=O)Nc1c(C)cccc1C`
result: -24.9

====

- test_system: BTK (Homo sapiens, UniProt Q06187)
- Sequence (Q06187 402-655 limits assumed): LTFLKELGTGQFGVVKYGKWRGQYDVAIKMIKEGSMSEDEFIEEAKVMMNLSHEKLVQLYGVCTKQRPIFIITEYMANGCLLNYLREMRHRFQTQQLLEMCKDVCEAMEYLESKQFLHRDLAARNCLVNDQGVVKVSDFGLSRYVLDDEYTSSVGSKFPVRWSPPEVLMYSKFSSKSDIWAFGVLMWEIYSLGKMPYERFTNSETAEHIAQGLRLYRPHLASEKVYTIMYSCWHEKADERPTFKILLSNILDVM
- assay_remarks: biochemical
- condition_info: read-out: BTK inhibition (%), 0.75 uM BTK, […] probe 3l, 15 min preincubation
property: inhibition at 10 µM (%)
The reply should contain only the number, in %.

# example entries with known answers
>>> df
                                test_smiles  units_label  recorded_measurement
0       O=C1CC(=O)c2c(Cl)c(Cl)c(Cl)c(Cl)c21            %                  79.5
1  O=C1Cc2cc(CCN3CCN(c4nsc5ccccc45)CC3)c(Cl)cc2N1            %                  52.1

// next item, inhibition at 10 µM requested
query: Check the records and state inhibition at 10 µM for `N[C@@]1(C(=O)O)CS(=O)(=O)[C@H]2[C@H](C(=O)O)[C@H]21`
result: 9.4

====

- test_system: BTK (Homo sapiens, UniProt Q06187)
- assay_remarks: biochemical
- condition_info: read-out: BTK inhibition (%), 0.75 uM BTK, […] probe 3l, 15 min preincubation
This listing pairs compounds with measured inhibition at 10 µM.
The reply should contain only the number, in %.

# example entries with known answers
>>> df
                                   compound                         test_system  units_label  recorded_measurement
0  COc1ccc(C[C@H](N)C(=O)N[C@H]2[C@@H](O)[C@H](n3cnc4c(N(C)C)ncnc43)O[C@@H]2CO)cc1  BTK (Homo sapiens, UniProt Q06187)            %                  -3.1
1  Nc1ncnc2c1ccn2[C@@H]1O[C@H]([C@H](O)c2ccccc2)[C@@H](O)[C@H]1O  BTK (Homo sapiens, UniProt Q06187)            %                  13.1
2         O=C(NO)c1cnc(NC2(c3ccccc3)CC2)nc1  BTK (Homo sapiens, UniProt Q06187)            %                 -10.8
3         CSCCC(N)C(=O)O (centres unmarked)  BTK (Homo sapiens, UniProt Q06187)            %                  17.9

// next item, inhibition at 10 µM requested
query: Check the records and state inhibition at 10 µM for `NCCCC(O)(P(=O)(O)O)P(=O)(O)O`
result: 0.9
